Biological target: Shiga toxin 2 (Escherichia coli O157:H7) (UniProt P09385+P09386)
Assay: E. coli 0.157:H7 Shiga Toxin SOP - stx2 screening assay
Format: functional
Set-up: scale not given: direction of the effect not stated beside the values
Conditions: 30 µM
measure: Percent Effect (%)
Answers are plain numbers, in %.

Completed entries (count: 5):
CC(C(=O)NCc1ccc(-n2cncn2)nc1)n1ccnc1 (configuration not stated) : 19.8
COCc1ccc(CN2CCC(O)(Cn3ccc4ncccc43)CC2)o1 : -34.6
CCc1n[nH]c(C2CN(C(=O)c3csnn3)CCO2)n1 (configuration not stated) : 10.6
Cn1nc(CNC(=O)C2CC2)cc1C1CC1 : -14.8
CC(C)c1ccc(CN2CCC3(CCCN(c4nncs4)C3)C2)cc1 (configuration not stated) : 5.96

Need Percent Effect for each of these molecules.
1. COc1ccc(OCCN(C)C(=O)NC(C)c2nncn2C)cc1 (configuration not stated)
2. O=C(Cc1ccccc1F)N1C[C@@H]2COC[C@]2(COc2cccnc2)C1

Result:
[-14.8, 3.35]

---

Target: Tyrosyl-tRNA synthetase, putative (Trypanosoma cruzi (strain CL Brener)) (UniProt Q4DSP6)
Sequence (whole entry): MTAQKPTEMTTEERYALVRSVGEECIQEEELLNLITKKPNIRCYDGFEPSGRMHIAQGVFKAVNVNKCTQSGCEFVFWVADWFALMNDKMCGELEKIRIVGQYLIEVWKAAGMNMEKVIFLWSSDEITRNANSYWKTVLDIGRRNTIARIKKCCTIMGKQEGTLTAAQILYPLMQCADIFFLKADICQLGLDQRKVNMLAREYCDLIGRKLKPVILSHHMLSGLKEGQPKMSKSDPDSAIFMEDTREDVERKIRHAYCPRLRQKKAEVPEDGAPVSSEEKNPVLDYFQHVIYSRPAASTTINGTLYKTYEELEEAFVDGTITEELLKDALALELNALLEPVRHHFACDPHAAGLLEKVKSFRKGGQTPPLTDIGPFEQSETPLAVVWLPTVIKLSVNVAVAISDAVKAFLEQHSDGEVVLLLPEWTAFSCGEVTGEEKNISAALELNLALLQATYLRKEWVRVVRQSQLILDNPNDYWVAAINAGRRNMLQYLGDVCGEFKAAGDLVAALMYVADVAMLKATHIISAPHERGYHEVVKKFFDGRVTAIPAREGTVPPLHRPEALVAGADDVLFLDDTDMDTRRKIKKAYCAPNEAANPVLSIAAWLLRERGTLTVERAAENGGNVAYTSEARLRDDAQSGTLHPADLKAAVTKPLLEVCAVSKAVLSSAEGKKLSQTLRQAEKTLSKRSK
Test: Trypanosoma cruzi tyrosyl tRNA synthetase (TcYRS) _High Tyrosine SOP; further: in the data most compounds retested in dose-response had high values
Type: functional
Set-up: scale not given: direction of the effect not stated beside the values
Details: 30 µM
Hi there, I'd appreciate the recorded Percent Effect for every entry that follows.
Answer with the number, then the unit.

Completed entries (count: 5):
CC(C)c1nccc([C@H]2C[C@@H]3CCN(Cc4ccoc4)C[C@H]3O2)n1 : 5.79%
Cc1n[nH]c2c1C(c1ccsc1)SCC(=O)N2 (stereo not drawn) : 5.29%
Cc1csc(CN2CCC[C@]3(C[C@H](Oc4ccccn4)CO3)C2)n1 : 3.12%
CN(C)[C@@H]1CCN(C(=O)Cc2ccc(F)cc2)[C@H]1Cc1cnn(C)c1 : 3.19%
O=C(NCc1ccccn1)[C@]12COC[C@H]1CN(C1CCC1)C2 : 3.12%

Need Percent Effect for each of these compounds.
1. O=C(Cc1csc(-c2ccco2)n1)N1CCN(CCO)CC1
2. Cc1ncccc1OCC(=O)N1CCN[C@H]2CS(=O)(=O)C[C@H]21
3. CC(C)c1nccc([C@H]2C[C@@H]3CCN(Cc4ccco4)C[C@H]3O2)n1
4. Cc1noc(C)c1CN1CCO[C@H]2CNC[C@H]21
5. O=C1CC2(CCCNC2)C(=O)N1Cc1ccccc1 (stereo not drawn)
6. COc1ccc(C(=O)C2CCCN(Cc3ccncc3)C2)c(OC)c1 (stereo not drawn)

Result:
["3.12%", "9.68%", "6.84%", "0.526%", "2.9%", "5.85%"]

Need Percent Effect for each of these compounds.
1. CC(C)c1nc(N2CCN3CCCC3C2)c2cnn(C)c2n1 (stereo not drawn)
2. Cn1cc(CN2CC[C@H]3CO[C@H](CNc4ncccn4)[C@H]3C2)cn1
3. c1ccc(CN2C[C@@H]3OCCN(c4ncccn4)[C@@H]3C2)nc1
4. CC(C)(C)n1cc(C2=CCN(CCc3ccccc3)CC2)cn1
5. CN1C(=O)C2(CCN(CC3CC3)CC2)c2ccccc21
6. O=C1[C@H]2CN(CC3CC3)C[C@H]2CN1c1ccsc1

Result:
8.33%
7.29%
6.38%
6.32%
2.16%
3.24%

Need Percent Effect for each of these compounds.
1. Fc1cnc(N2CCO[C@H]3CN(CC4CCC4)C[C@H]32)nc1
2. Cc1c(CC(=O)N2CCN(CC(F)(F)F)CC2)nnn1-c1ccccc1
3. c1ccc(CN2C[C@@H]3CCCO[C@@H]3[C@H](Nc3ccccn3)C2)nc1
4. COCCN1C[C@@H]2CN(Cc3cccc(C)n3)C[C@@H]2C1=O

Result:
["-4.17%", "4.3%", "6.45%", "7.73%"]

Need Percent Effect for each of these compounds.
1. Fc1cnc(N2CCCC3(CCN(Cc4ccsc4)C3)C2)nc1 (stereo not drawn)
2. c1cnc(N2CCC3(COCCN(CC4CC4)C3)C2)nc1 (stereo not drawn)

Result:
1. 6.84%
2. 3.68%
